Recorded Emax for the following compounds
# measurement-target: Melanocortin receptor 4 (Homo sapiens, UniProt P32245)
# Sequence (P32245 whole entry): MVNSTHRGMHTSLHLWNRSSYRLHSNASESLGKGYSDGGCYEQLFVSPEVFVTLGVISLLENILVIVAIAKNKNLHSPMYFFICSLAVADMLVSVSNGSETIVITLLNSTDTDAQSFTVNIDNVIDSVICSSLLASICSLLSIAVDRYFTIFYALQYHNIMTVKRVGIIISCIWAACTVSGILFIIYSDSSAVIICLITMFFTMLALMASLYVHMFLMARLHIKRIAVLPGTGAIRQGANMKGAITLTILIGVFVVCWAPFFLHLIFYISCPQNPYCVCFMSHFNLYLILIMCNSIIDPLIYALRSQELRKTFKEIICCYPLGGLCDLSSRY
# assay-text: Agonist potency at MC4 receptor
# Type: functional

Entry N=C(N)NCCC[C@H]1C[C@@H](OCc2ccccc2)CN1C(=O)[C@@H](Cc1ccccc1)NC(=O)C1Cc2ccccc2CN1 (single isomer, unassigned) under Melanocortin receptor 4 (Homo sapiens, UniProt P32245) had Emax of 89%

The reported Melanocortin receptor 4 (Homo sapiens, UniProt P32245) Emax of CNC(=O)[C@H](Cc1ccc2ccccc2c1)NC(=O)[C@H](CCCN=C(N)N)NC(=O)[C@H](CC[C@@H]1Cc2ccccc2CN1)Cc1ccccc1 is 77%

Field Emax (Melanocortin receptor 4 (Homo sapiens, UniProt P32245)), entry CNC(=O)[C@H](Cc1ccc2ccccc2c1)NC(=O)[C@H](CCCN=C(N)N)NC(=O)[C@H](CC[C@H](Cc1ccc(O)cc1)NC(C)=O)Cc1ccc(F)cc1 : 91%

---

# measurement-target: Melanocortin receptor 4 (Homo sapiens, UniProt P32245)
# assay-text: Agonist potency at MC4 receptor
Where a SMILES comes first, the peptide text is derived from it. [ ]: non-standard residue; d: D form. 2Nal = N[C@@H](Cc1ccc2ccccc2c1)C(=O)O
attribute-measured: EC50 (nM)
Report as a plain number; the unit nM is understood.

>  <compound>
CC(=O)N[C@H](Cc1ccc(O)cc1)C(=O)N[C@H](Cc1ccccc1)C(=O)N1C[C@H](OCc2ccccc2)C[C@@H]1CCCN=C(N)N

>  <EC50 (nM)>
8

$$$$
>  <compound>
CNC(=O)[C@H](Cc1ccc2ccccc2c1)NC(=O)[C@H](CCCN=C(N)N)NC(=O)[C@H](CC[C@H](Cc1ccccc1)NC(C)=O)Cc1ccc(F)cc1

>  <EC50 (nM)>
20

$$$$
>  <compound>
CNC(=O)[C@H](Cc1ccc2ccccc2c1)NC(=O)[C@H](CCCN=C(N)N)NC(=O)[C@H](CC[C@H](Cc1ccc(O)cc1)NC(C)=O)Cc1ccc(F)cc1

>  <EC50 (nM)>
10

$$$$
>  <compound>
CNC(=O)[C@H](Cc1ccc2ccccc2c1)NC(=O)[C@H](CCCN=C(N)N)NC(=O)[C@@H](Cc1ccccc1)NC(=O)[C@@H]1Cc2ccccc2CN1

>  <EC50 (nM)>
10

$$$$
>  <compound>
CNC(=O)[C@H](Cc1ccc2ccccc2c1)NC(=O)[C@H](CCCN=C(N)N)NC(=O)[C@@H](Cc1ccccc1)NC(=O)[C@H](Cc1ccc(O)cc1)NC(C)=O (Ac-Y[dF]R[2Nal]-NHMe)

>  <EC50 (nM)>
44

$$$$
>  <compound>
CNC(=O)[C@H](Cc1ccc2ccccc2c1)NC(=O)[C@H](CCCN=C(N)N)NC(=O)[C@H](CC[C@H](Cc1ccc(Cl)cc1)NC(C)=O)Cc1ccc(F)cc1

>  <EC50 (nM)>
193

$$$$

Next:
Per the records, this compound ( CNC(=O)[C@H](Cc1ccc2ccccc2c1)NC(=O)[C@H](CCCN=C(N)N)NC(=O)[C@H](CC[C@H](Cc1ccc(O)cc1)NC(C)=O)Cc1ccccc1 ) has EC50 equal to 38

---

Where a SMILES comes first, the peptide text is derived from it. [ ]: non-standard residue; d: D form. 2Nal = N[C@@H](Cc1ccc2ccccc2c1)C(=O)O
Let's go through some pKi measurements on Melanocortin receptor 4 (Homo sapiens) together.
Remember the convention: pKi equals -log10 of concentration in molar.

Example results:
>  <compound>
CNC(=O)[C@H](Cc1ccc2ccccc2c1)NC(=O)[C@H](CCCN=C(N)N)NC(=O)[C@@H](Cc1ccccc1)NC(=O)[C@@H]1Cc2ccccc2CN1

>  <pKi>
7.62

$$$$
>  <compound>
N=C(N)NCCC[C@H]1C[C@@H](OCc2ccccc2)CN1C(=O)[C@H](CC[C@H]1Cc2ccccc2CN1)Cc1ccccc1

>  <pKi>
7.12

$$$$
>  <compound>
CNC(=O)[C@H](Cc1ccc2ccccc2c1)NC(=O)[C@H](CCCN=C(N)N)NC(=O)[C@H](CC[C@H](Cc1ccc(Cl)cc1)NC(C)=O)Cc1ccc(F)cc1

>  <pKi>
6.67

$$$$
>  <compound>
CNC(=O)[C@H](Cc1ccc2ccccc2c1)NC(=O)[C@H](CCCN=C(N)N)NC(=O)[C@@H](Cc1ccccc1)NC(=O)[C@H](Cc1ccc(O)cc1)NC(C)=O (Ac-Y[dF]R[2Nal]-NHMe)

>  <pKi>
6.98

$$$$

Let us move to another entry and its pKi.
Simply: CNC(=O)[C@H](Cc1ccc2ccccc2c1)NC(=O)[C@H](CCCN=C(N)N)NC(=O)[C@H](CC[C@H](Cc1ccccc1)NC(C)=O)Cc1ccc(F)cc1 , Melanocortin receptor 4 (Homo sapiens), pKi = 7.43

---

# measurement-target: Melanocortin receptor 3 (Homo sapiens, UniProt P41968)
# Sequence (P41968 whole entry): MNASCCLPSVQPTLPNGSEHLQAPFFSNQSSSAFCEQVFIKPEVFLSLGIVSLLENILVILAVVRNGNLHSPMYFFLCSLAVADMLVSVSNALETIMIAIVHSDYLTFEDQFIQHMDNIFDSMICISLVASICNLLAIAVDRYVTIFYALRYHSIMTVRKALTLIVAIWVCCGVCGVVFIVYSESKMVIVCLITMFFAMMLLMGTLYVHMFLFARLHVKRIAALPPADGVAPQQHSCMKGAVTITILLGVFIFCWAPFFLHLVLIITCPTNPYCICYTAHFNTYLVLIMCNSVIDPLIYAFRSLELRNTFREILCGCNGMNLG
Where a SMILES comes first, the peptide text is derived from it. [ ]: non-standard residue; d: D form. 2Nal = N[C@@H](Cc1ccc2ccccc2c1)C(=O)O
attribute-measured: Ki (µM)
Express the result in µM but write the number alone.

Here is how some compounds turned out for Ki.
>  <compound>
CNC(=O)[C@H](Cc1ccc2ccccc2c1)NC(=O)[C@H](CCCN=C(N)N)NC(=O)[C@@H](Cc1ccccc1)NC(=O)[C@H](Cc1ccc(O)cc1)NC(C)=O (Ac-Y[dF]R[2Nal]-NHMe)

>  <Ki, µM>
1.73

$$$$
>  <compound>
CNC(=O)[C@H](Cc1ccc2ccccc2c1)NC(=O)[C@H](CCCN=C(N)N)NC(=O)[C@H](CC[C@H](Cc1ccc(O)cc1)NC(C)=O)Cc1ccc(F)cc1

>  <Ki, µM>
6.2

$$$$

Noted Ki for CNC(=O)[C@H](Cc1ccc2ccccc2c1)NC(=O)[C@H](CCCN=C(N)N)NC(=O)[C@@H](Cc1ccccc1)NC(=O)[C@@H]1Cc2ccccc2CN1 , tested on Melanocortin receptor 3 (Homo sapiens, UniProt P41968): 1.63

Field Ki (Melanocortin receptor 3 (Homo sapiens, UniProt P41968)), entry N=C(N)NCCC[C@H]1C[C@@H](OCc2ccccc2)CN1C(=O)[C@H](CC[C@H]1Cc2ccccc2CN1)Cc1ccccc1 : 0.382

Summary line: CNC(=O)[C@H](Cc1ccc2ccccc2c1)NC(=O)[C@H](CCCN=C(N)N)NC(=O)[C@H](CC[C@H](Cc1ccc(Cl)cc1)NC(C)=O)Cc1ccc(F)cc1 , Melanocortin receptor 3 (Homo sapiens, UniProt P41968), reported Ki = 18
